Tested on: CAL-148
Experiment: drug sensitivity score (DSS), CellTiter-Glo (DSS (AUC-based score)); higher = stronger drug effect (viability inhibition or cytotoxicity); extreme values may be limits of the assay
Details: incubation time: 72 h
readout-name: drug sensitivity score
Answer using only a numeral; do not append any unit.

// solved cases for drug sensitivity score follow
- compound: "CC1(C)CCC(CN2CCN(c3ccc(C(=O)NS(=O)(=O)c4ccc(NCC5CCOCC5)c([N+](=O)[O-])c4)c(Oc4cnc5[nH]ccc5c4)c3)CC2)=C(c2ccc(Cl)cc2)C1 [ABT-199]"
  measurement-target: "CAL-148"
  readout-name: "drug sensitivity score"
  reported: 0
- compound: "O=NN(CCCl)C(=O)NCCCl [Carmustine]"
  measurement-target: "CAL-148"
  readout-name: "drug sensitivity score"
  reported: 0
- compound: "CC(=O)O[C@@]12CO[C@@H]1C[C@H](O)[C@@]1(C)C(=O)[C@H](O)C3=C(C)[C@@H](OC(=O)[C@H](O)[C@@H](NC(=O)OC(C)(C)C)c4ccccc4)C[C@@](O)([C@@H](OC(=O)c4ccccc4)[C@H]21)C3(C)C [Docetaxel]"
  measurement-target: "CAL-148"
  readout-name: "drug sensitivity score"
  reported: 20.5
- compound: "CC(C)(C)c1cnc(CSc2cnc(NC(=O)C3CCNCC3)s2)o1 [SNS-032]"
  measurement-target: "CAL-148"
  readout-name: "drug sensitivity score"
  reported: 10.3
- compound: "Cn1cc(C2=Nc3cc(NC(=O)C(N)C4CCCCC4)cc4c3C2=CNNC4=O)cn1 (configuration not stated)"
  measurement-target: "CAL-148"
  readout-name: "drug sensitivity score"
  reported: 0

Prompt line: Suppose we examine the compound Cn1cnc2c(F)c(Nc3ccc(Br)cc3Cl)c(C(=O)NOCCO)cc21 [Selumetinib] ; what drug sensitivity score value has been reported?
Response line: 0

Prompt line: Suppose we examine the compound CC1=C2C[C@H]3[C@@H](CC=C4C[C@@H](O)CC[C@@]43C)[C@@H]2CC[C@]12O[C@@H]1C[C@H](C)CN[C@H]1[C@H]2C [Cyclopamine] ; what drug sensitivity score value has been reported?
Response line: 0

###

Listed here are compounds together with their documented normalised response.
Tested on: BT-549
Test: normalised response (% of control), CellTiter-Glo; higher = more viable cells (100 = DMSO, 0 = benzethonium chloride kill control)
Settings: incubation time: 72 h
# unit: % | format: bare number

- compound: "Cc1ccc([N+](=O)[O-])cc1S(=O)(=O)N(C)/N=C/c1cnc2ccc(Br)cn12 [PIK-75] (10 nM)"
  measurement-target: "BT-549"
  readout-name: "normalised response"
  reported: 101

Prompt line: Under BT-549: normalised response value of CC1(C)CNc2cc(NC(=O)c3cccnc3NCc3ccncc3)ccc21 [Motesanib] (1000 nM) ?
Response line: 97.6

Prompt line: Under BT-549: normalised response value of CC(=O)O[C@@]12CO[C@@H]1C[C@H](O)[C@@]1(C)C(=O)[C@H](O)C3=C(C)[C@@H](OC(=O)[C@H](O)[C@@H](NC(=O)OC(C)(C)C)c4ccccc4)C[C@@](O)([C@@H](OC(=O)c4ccccc4)[C@H]21)C3(C)C [Docetaxel] (0.1 nM) ?
Response line: 104

Prompt line: Under BT-549: normalised response value of O=C1CN2Cc3c(ccc(Cl)c3Cl)N=C2N1 [Anagrelide] (10 nM) ?
Response line: 101

Source of measurements: the supplement of paper PMC4862054
